// provenance: ChEMBL document CHEMBL4229379

In this section, each of the compounds is paired with its reported MIC.
Test system: Klebsiella pneumoniae
experimentSummary: Antibacterial activity against carbapenem-resistant Klebsiella pneumoniae 12-11 after 18 hrs by CLSI broth microdilution method
Assay type: functional
conditionSummary: 12-11, 18 h
Your answer should be a plain number; it is taken to be in µg/mL.

Here are 3 compounds together with their reported answers.
Query: I have this compound here, C[C@H]1COc2c(N3CCN(C)CC3)c(F)cc3c(=O)c(C(=O)O)cn1c23.C[C@H]1COc2c(N3CCN(C)CC3)c(F)cc3c(=O)c(C(=O)O)cn1c23.O [LEVOFLOXACIN] , and I need its recorded MIC.
Response: 16

Query: I have this compound here, "CN(C)C(=N)c1ccc2cc(-c3ccc(-c4cc5ccc(C(=N)N(C)C)cc5[nH]4)cc3)[nH]c2c1" , and I need its recorded MIC.
Response: 8

Query: I have this compound here, CN(C)c1cc(NC(=O)CNC(C)(C)C)c(O)c2c1C[C@H]1C[C@H]3[C@H](N(C)C)C(O)=C(C(N)=O)C(=O)[C@@]3(O)C(O)=C1C2=O [TIGECYCLINE] , and I need its recorded MIC.
Response: 1

API: the following record is the query input.
Query: I have this compound here, C[C@@H](O)[C@H]1C(=O)N2C(C(=O)O)=C(S[C@@H]3CN[C@H](C(=O)N(C)C)C3)[C@H](C)[C@H]12 [MEROPENEM] , and I need its recorded MIC.
Response: 64
